Source listed as patent US11033539B2.

- TARGET UNDER TEST: human M1 receptor (Homo sapiens (Human), UniProt P11229)
- Sequence (P11229 whole entry): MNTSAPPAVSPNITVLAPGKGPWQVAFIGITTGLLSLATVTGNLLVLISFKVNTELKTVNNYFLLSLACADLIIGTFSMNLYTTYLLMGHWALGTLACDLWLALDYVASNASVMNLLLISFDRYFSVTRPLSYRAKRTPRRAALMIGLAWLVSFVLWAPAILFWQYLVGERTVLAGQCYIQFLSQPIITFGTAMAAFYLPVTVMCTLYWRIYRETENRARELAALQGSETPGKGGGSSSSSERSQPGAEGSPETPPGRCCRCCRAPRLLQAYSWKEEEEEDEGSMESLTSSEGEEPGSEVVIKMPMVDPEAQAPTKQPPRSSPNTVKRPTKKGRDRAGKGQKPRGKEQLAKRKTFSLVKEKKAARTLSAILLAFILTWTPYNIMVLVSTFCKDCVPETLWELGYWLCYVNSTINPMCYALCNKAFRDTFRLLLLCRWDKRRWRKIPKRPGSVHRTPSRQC
- PROTOCOL: Radioligand (tritiated N-methylscopolamine) binding assay, M1
- TEST SETTINGS: CHO cell membranes expressing human M1; 1.5 nM tritiated N-methylscopolamine; 90 min, 37° C.; read-out: Ki against M1 receptor (Table 21, M1)
MEASUREMENT NAME: Ki

Examples from the recorded data:
COMPOUND | OBSERVED
CNc1nc(N2CCN(C(=O)NCCC3CCN(Cc4ccccc4)CC3)[C@H](C)C2)ncc1C#N | 100 to 1000 nM
C[C@@H]1CN(c2cc(F)c(F)c(F)c2)CCN1C(=O)NCCC1CCN(Cc2cccc3c2OCC3)CC1 | 100 to 1000 nM
O=C(NCCC1CCN(Cc2ccccc2)CC1CO)N1CCN(c2cc(F)c(F)c(F)c2)CC1 (centres unmarked) | > 1000 nM
C[C@@H]1CN(c2ccc(C#N)cc2F)C[C@H](C)N1C(=O)NCCC1CCN(Cc2ccccc2)CC1 | > 1000 nM
C[C@@H]1CN(C(=O)NCCC2CCN(Cc3ccccc3)CC2)CCN1c1ccc(OC(F)(F)F)c(F)c1 | > 1000 nM
N#Cc1cnc(N2CC3CCC(C2)N3C(=O)NCCC2CCN(Cc3ccccc3)CC2)nc1 | 10 to 100 nM
C[C@@H]1CN(c2cnc(C(F)(F)F)nc2)C[C@H](C)N1C(=O)NCCC1CCN(Cc2ccc3[nH]ccc3c2)CC1 | 100 to 1000 nM

// switching to the query compound
Name the recorded Ki for "O=C(NCCC1CCN(Cc2ccccc2)CC1)C1CCN(c2ccc(OC(F)(F)F)c(F)c2)CC1" .
> 1000 nM

====

- TARGET UNDER TEST: human M4 receptor (Homo sapiens (Human), UniProt P08173)
- Sequence (P08173 whole entry): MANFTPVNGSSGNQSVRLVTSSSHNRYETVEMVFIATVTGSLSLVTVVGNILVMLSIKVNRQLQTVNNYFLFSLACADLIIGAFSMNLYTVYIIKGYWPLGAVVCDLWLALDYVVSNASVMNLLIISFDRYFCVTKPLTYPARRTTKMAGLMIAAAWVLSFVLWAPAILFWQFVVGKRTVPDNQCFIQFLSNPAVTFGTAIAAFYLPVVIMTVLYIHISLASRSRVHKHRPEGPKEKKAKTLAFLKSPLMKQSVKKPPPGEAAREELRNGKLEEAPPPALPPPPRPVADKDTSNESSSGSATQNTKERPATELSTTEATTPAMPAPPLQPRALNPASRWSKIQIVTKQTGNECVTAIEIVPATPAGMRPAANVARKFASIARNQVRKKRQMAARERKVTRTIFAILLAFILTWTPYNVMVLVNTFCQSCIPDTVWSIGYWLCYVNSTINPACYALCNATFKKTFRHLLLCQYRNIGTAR
- PROTOCOL: Radioligand (tritiated N-methylscopolamine) binding assay, M4
- TEST SETTINGS: Ki against the M4 receptor; membranes from CHO cells expressing human M4; tritiated N-methylscopolamine 1.5 nM; read-out: Ki
pKi: −log10 of the molar value.
// reported pKi per item

Examples from the recorded data:
STRUCTURE SMILES | OBSERVED
N#Cc1ccc(N2CCC(C(=O)NCCC3CCN(Cc4ccccc4)CC3)CC2)cc1F | 7.00 to 8.00
CN(CCNC(=O)C1CCN(c2cccc(OC(F)(F)F)c2)CC1)[C@@H]1CCN(Cc2ccccc2)C1 | 7.00 to 8.00
O=C(NCCC1CCN(Cc2ccccc2)CC1)C1CCN(c2cc(F)c(F)c(F)c2)CC1 | > 8.00

Name the recorded pKi for "CN(CCNC(=O)C1CCN(c2ccc(OC(F)(F)F)cc2)CC1)[C@H]1CCN(Cc2ccccc2)C1" .
7.00 to 8.00

====

- TARGET UNDER TEST: human M4 receptor (Homo sapiens (Human))
- PROTOCOL: Radioligand (tritiated N-methylscopolamine) binding assay, M4
- TEST SETTINGS: Ki against the M4 receptor; membranes from CHO cells expressing human M4; tritiated N-methylscopolamine 1.5 nM; read-out: Ki
MEASUREMENT NAME: Ki

Examples from the recorded data:
COMPOUND | Ki
N#Cc1cnc(N2CC3CCC(C2)N3C(=O)NCCC2CCN(Cc3ccccc3)CC2)nc1 [8-48] | < 10 nM
N#Cc1cc(N2CCN(C(=O)OCCC3CCN(Cc4ccccc4)CC3)CC2)ccc1F [12-10] | 100 to 1000 nM
O=C(NCCC1CCN(Cc2ccc(F)cc2)CC1)c1ccc(OCc2ccccc2)cc1 [6-15] | 10 to 100 nM
Cc1nc(-c2ccc(C(F)(F)F)cc2)sc1C(=O)NCCC1CCN(Cc2ccccc2)CC1 [9-32] | 10 to 100 nM
CC(C)CN1CCC(CCNC(=O)N2[C@H](C)CN(c3ncc(C#N)cn3)C[C@@H]2C)CC1 [21-6] | 100 to 1000 nM
COc1cc(N2CCC(C(=O)NCCC3CCN(Cc4ccccc4)CC3)CC2)ccc1OC(F)(F)F [10-10] | < 10 nM

Name the recorded Ki for C[C@@H]1CN(c2ccc(C(F)(F)F)cc2F)CCN1C(=O)NCCC1CCN(Cc2ccccc2)CC1 [4-73] .
< 10 nM

Name the recorded Ki for O=C(NCC1CCN(Cc2ccccc2)CC1)C1CCN(c2ncc(C(F)(F)F)cc2Cl)CC1 [9-65] .
100 to 1000 nM

Name the recorded Ki for O=C(NCCC1CCN(Cc2ccccc2)CC1)C1CCN(c2ccc(OC(F)F)cc2)CC1 [10-76] .
10 to 100 nM

Name the recorded Ki for C[C@@H]1CN(c2ncc(C(F)(F)F)c(N)n2)C[C@H](C)N1C(=O)NCCC1CCN(Cc2ccccc2)CC1 [5-28] .
< 10 nM

Name the recorded Ki for COc1ccc(N2C[C@@H](C)N(C(=O)NCCC3CCN(Cc4ccccc4)CC3)[C@@H](C)C2)cc1C#N [22-24] .
< 10 nM
